- study_system: human mGlu2 receptor (Homo sapiens, UniProt Q14416)
- Sequence (Q14416 19-872): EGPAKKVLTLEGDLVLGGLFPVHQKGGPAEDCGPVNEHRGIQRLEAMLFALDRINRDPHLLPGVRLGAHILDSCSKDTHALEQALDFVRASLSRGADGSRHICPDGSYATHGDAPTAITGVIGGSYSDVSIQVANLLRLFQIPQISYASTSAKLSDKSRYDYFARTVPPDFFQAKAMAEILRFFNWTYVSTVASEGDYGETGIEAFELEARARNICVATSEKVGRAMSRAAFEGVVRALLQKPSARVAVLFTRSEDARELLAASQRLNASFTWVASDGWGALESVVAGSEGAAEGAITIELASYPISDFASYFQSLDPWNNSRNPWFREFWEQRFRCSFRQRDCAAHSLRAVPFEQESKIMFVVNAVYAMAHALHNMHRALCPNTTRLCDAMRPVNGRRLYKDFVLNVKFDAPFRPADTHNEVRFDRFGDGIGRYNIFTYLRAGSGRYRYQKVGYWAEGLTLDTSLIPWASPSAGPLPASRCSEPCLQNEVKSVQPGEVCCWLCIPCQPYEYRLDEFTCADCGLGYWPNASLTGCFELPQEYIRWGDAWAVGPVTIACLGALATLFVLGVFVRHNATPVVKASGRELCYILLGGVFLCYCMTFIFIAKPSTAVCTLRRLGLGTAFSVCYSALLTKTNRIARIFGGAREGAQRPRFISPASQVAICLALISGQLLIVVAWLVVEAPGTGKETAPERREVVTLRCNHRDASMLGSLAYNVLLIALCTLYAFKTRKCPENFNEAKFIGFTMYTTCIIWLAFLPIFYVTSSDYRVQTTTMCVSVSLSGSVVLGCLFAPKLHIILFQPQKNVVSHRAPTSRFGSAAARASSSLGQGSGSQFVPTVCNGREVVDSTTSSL
- protocol_description: FLIPR intracellular Ca2+ assay, potentiation of glutamate response in HEK293 clone expressing mGlu2 receptor, rGLAST and Galpha16
- test_settings: 1 μM glutamate added ten minutes after test compound, HEK293 cells with human mGlu2, rGLAST, Galpha16, read-out: EC50 values of potentiation effect to glutamate
pEC50: −log10 of the molar value.
value_type: pEC50

| compound_structure_string | value_type | measurement |
| --- | --- | --- |
| CC(=O)c1ccc(NCc2c[nH]nc2-c2ccc(C(F)(F)F)cc2)cc1 | pEC50 | 5.00 to 6.00 |
| CCCN1Cc2cc(OCc3c[nH]nc3-c3ccc(Cl)cc3)ccc2C1=O | pEC50 | > 6.00 |
| CCCC(=O)c1ccc(NCc2cnc(-c3cccc(OC)c3)s2)cc1 | pEC50 | 5.00 to 6.00 |
| O=C1c2ccc(OCc3c[nH]nc3-c3ccc(C(F)(F)F)cc3)cc2CN1CCC(F)(F)F | pEC50 | > 6.00 |
| O=C1c2ccc(OCc3c[nH]nc3-c3cccc(C(F)(F)F)c3)cc2CN1CC(F)(F)F | pEC50 | > 6.00 |

====

// reported EC50 for each item listed
- study_system: human mGlu2 receptor (Homo sapiens, UniProt Q14416)
- protocol_description: FLIPR intracellular Ca2+ assay, potentiation of glutamate response in HEK293 clone expressing mGlu2 receptor, rGLAST and Galpha16
- test_settings: 1 μM glutamate added ten minutes after test compound, HEK293 cells with human mGlu2, rGLAST, Galpha16, read-out: EC50 values of potentiation effect to glutamate
value_type: EC50

| molecule | value_type | measurement |
| --- | --- | --- |
| CCCC(=O)c1ccc(NCc2ccc(COC(C)=O)o2)cc1 | EC50 | 1000 to 10000 nM |
| CCCC(=O)c1ccc(SCc2c[nH]nc2-c2ccc(C(F)(F)F)cc2)cc1 | EC50 | 1000 to 10000 nM |
| CCCC(=O)c1ccc(NCc2cnn(CC)c2C)cc1 | EC50 | 1000 to 10000 nM |
| CCC(C)COc1cccc(N(Cc2c[nH]nc2-c2ccc(C(F)(F)F)cc2)S(=O)(=O)CC(F)(F)F)c1 (stereo not drawn) | EC50 | 1000 to 10000 nM |
| CCCN1Cc2cc(NCc3c[nH]nc3-c3ccc(Cl)cc3)ccc2C1=O | EC50 | < 1000 nM |
| O=C1c2ccc(OCc3c[nH]nc3-c3ccc(C(F)(F)F)cc3)cc2CN1C1CCCC1 | EC50 | < 1000 nM |
| CCCC(=O)c1ccc(NCc2cnn(C(C)C)c2)cc1 | EC50 | 1000 to 10000 nM |
| CC(=O)c1sccc1NCc1c[nH]nc1-c1ccc(C(F)(F)F)cc1 | EC50 | 1000 to 10000 nM |
| CCC(CC)Oc1cccc(NCc2c[nH]nc2-c2ccc(C(F)(F)F)cc2)c1 | EC50 | 1000 to 10000 nM |

====

// reported pEC50 for each item listed
- study_system: human mGlu2 receptor (Homo sapiens)
- protocol_description: FLIPR intracellular Ca2+ assay, potentiation of glutamate response in HEK293 clone expressing mGlu2 receptor, rGLAST and Galpha16
- test_settings: 1 μM glutamate added ten minutes after test compound, HEK293 cells with human mGlu2, rGLAST, Galpha16, read-out: EC50 values of potentiation effect to glutamate
pEC50: −log10 of the molar value.

| compound | pEC50 |
| --- | --- |
| CCCC(=O)c1ccc(NCc2ccc(N(C)C)nc2)cc1 [Example 387] | 5.00 to 6.00 |
| CCCC(=O)c1ccc(NCc2ccnn2C)cc1 [Example 216] | 5.00 to 6.00 |
| O=C1c2ccc(OCc3c[nH]nc3-c3cccc(F)c3)cc2CN1CCC(F)(F)F [Example 541] | > 6.00 |
| CCCC(=O)c1ccc(NCc2cnc(-c3ccccc3)s2)cc1 [Example 246] | 5.00 to 6.00 |
| CCN1Cc2cc(OCc3c[nH]nc3-c3ccc(Cl)cc3)ccc2C1=O [Example 562] | > 6.00 |
| CCCC(=O)c1ccc(NCc2c(C)nn(C)c2Oc2ccc(Cl)cc2)cc1 [Example 49] | 5.00 to 6.00 |
| CCCC(=O)c1ccc(OCc2c[nH]nc2-c2ccccc2)cc1 [Example 499] | > 6.00 |
| Cc1cc(C)nc(NCc2c[nH]nc2-c2ccc(C(F)(F)F)cc2)c1 [Example 341] | 5.00 to 6.00 |
| CCCCN1Cc2cc(OCc3c[nH]nc3-c3ccc(Cl)c(Cl)c3)ccc2C1=O [Example 547] | > 6.00 |
| CC(C)(C)c1n[nH]cc1CNc1ccc2c(c1)OCO2 [Example 117] | 5.00 to 6.00 |
| CCCC(=O)c1ccc(NCc2cnn(CCC)c2C)cc1 [Example 71] | 5.00 to 6.00 |
| CCCCN1Cc2cc(OCc3c[nH]nc3-c3ccc(C(F)(F)F)cc3)ccc2C1=O [Example 544] | > 6.00 |
| CCCC(=O)c1ccc(NCc2ccc(OC3CCCC3)nc2)cc1 [Example 313] | 5.00 to 6.00 |
| O=C1c2ccc(OCc3c[nH]nc3-c3cccc(C(F)(F)F)c3)cc2CN1CCC(F)(F)F [Example 538] | > 6.00 |
| CCCC(=O)c1ccc(NCc2c[nH]nc2-c2ccc(C(F)(F)F)cc2)cc1 [Example 42] | > 6.00 |
| CCN1Cc2cc(OCc3c[nH]nc3-c3ccccc3)ccc2C1=O [Example 563] | > 6.00 |
| CCCC(=O)c1ccc(NCc2c[nH]nc2-c2ccc(C)cc2)cc1 [Example 212] | > 6.00 |
| CCCC(=O)c1ccc(NCc2cccnc2-c2ccccc2)cc1 [Example 526] | 5.00 to 6.00 |
| CCCC(=O)c1ccc(NCc2c[nH]nc2-c2cccs2)cc1 [Example 40] | > 6.00 |

====

// reported pEC50 for each item listed
- study_system: human mGlu2 receptor (Homo sapiens, UniProt Q14416)
- protocol_description: FLIPR intracellular Ca2+ assay, potentiation of glutamate response in HEK293 clone expressing mGlu2 receptor, rGLAST and Galpha16
- test_settings: 1 μM glutamate added ten minutes after test compound, HEK293 cells with human mGlu2, rGLAST, Galpha16, read-out: EC50 values of potentiation effect to glutamate
pEC50: −log10 of the molar value.

| compound | study_system | pEC50 |
| --- | --- | --- |
| CCCCCC(=O)c1ccc(OCc2c[nH]nc2-c2ccc(C(F)(F)F)cc2)cc1 [Example 491] | human mGlu2 receptor (Homo sapiens, UniProt Q14416) | > 6.00 |
| O=C1c2ccc(OCc3c[nH]nc3-c3ccc(C(F)(F)F)cc3)cc2CN1CC1CCCCC1 [Example 586] | human mGlu2 receptor (Homo sapiens, UniProt Q14416) | > 6.00 |
| CC(C)(C)c1n[nH]cc1CN(c1cccc(OC2CCCC2)c1)S(=O)(=O)CC(F)(F)F [Example 458] | human mGlu2 receptor (Homo sapiens, UniProt Q14416) | 5.00 to 6.00 |
| CCCC(=O)c1ccc(NCc2c[nH]nc2-c2ccc(OC)c(OC)c2)cc1 [Example 218] | human mGlu2 receptor (Homo sapiens, UniProt Q14416) | > 6.00 |

====

- study_system: human mGlu2 receptor (Homo sapiens, UniProt Q14416)
- protocol_description: FLIPR intracellular Ca2+ assay, potentiation of glutamate response in HEK293 clone expressing mGlu2 receptor, rGLAST and Galpha16
- test_settings: 1 μM glutamate added ten minutes after test compound, HEK293 cells with human mGlu2, rGLAST, Galpha16, read-out: EC50 values of potentiation effect to glutamate
pEC50: −log10 of the molar value.

| compound_structure_string | study_system | pEC50 |
| --- | --- | --- |
| CCCC(=O)c1cccc(N(Cc2cccnc2)S(=O)(=O)CC(F)(F)F)c1 | human mGlu2 receptor (Homo sapiens, UniProt Q14416) | > 6.00 |
| CCCC(=O)c1cccc(NCc2n[nH]cc2-c2ccc(OC)cc2)c1 | human mGlu2 receptor (Homo sapiens, UniProt Q14416) | 5.00 to 6.00 |
| CCCC(=O)c1ccc(NCc2c[nH]nc2-c2ccc(O)cc2)cc1 | human mGlu2 receptor (Homo sapiens, UniProt Q14416) | > 6.00 |
| CC(=O)c1ccc(OCc2c[nH]nc2-c2ccc(C(F)(F)F)cc2)c(C)c1 | human mGlu2 receptor (Homo sapiens, UniProt Q14416) | 5.00 to 6.00 |
| CCCC(=O)c1ccc(OCc2c[nH]nc2-c2cccc(C(F)(F)F)c2)cc1 | human mGlu2 receptor (Homo sapiens, UniProt Q14416) | > 6.00 |
| CCCC(=O)c1cccc(NCc2n[nH]cc2-c2ccc(CC)cc2)c1 | human mGlu2 receptor (Homo sapiens, UniProt Q14416) | 5.00 to 6.00 |
| CCCC(=O)c1ccc(NCc2cnccc2-c2cccc(Br)c2)cc1 | human mGlu2 receptor (Homo sapiens, UniProt Q14416) | 5.00 to 6.00 |
| CCCC(=O)c1ccc(NCc2c[nH]nc2CC)cc1 | human mGlu2 receptor (Homo sapiens, UniProt Q14416) | 5.00 to 6.00 |
| CC(C)(C)c1n[nH]cc1CNc1ccc(OCc2ccccn2)cc1 | human mGlu2 receptor (Homo sapiens, UniProt Q14416) | 5.00 to 6.00 |
| O=C(c1ccc(OCc2c[nH]nc2-c2cccc(C(F)(F)F)c2)cc1)C1CCCC1 | human mGlu2 receptor (Homo sapiens, UniProt Q14416) | > 6.00 |
| CCCC(=O)c1ccc(NCc2cnn(-c3ccccc3)c2C)cc1 | human mGlu2 receptor (Homo sapiens, UniProt Q14416) | 5.00 to 6.00 |
| Cc1cc(=O)c2ccc(NCc3c[nH]nc3-c3ccc(C(F)(F)F)cc3)cc2o1 | human mGlu2 receptor (Homo sapiens, UniProt Q14416) | 5.00 to 6.00 |
| CCCC(=O)c1ccc(NCc2c[nH]nc2-c2cccc(C(F)(F)F)c2)cc1 | human mGlu2 receptor (Homo sapiens, UniProt Q14416) | 5.00 to 6.00 |
| O=C1c2ccc(OCc3c[nH]nc3-c3ccc(C(F)(F)F)cc3)cc2CN1Cc1ccc(OC(F)(F)F)cc1 | human mGlu2 receptor (Homo sapiens, UniProt Q14416) | > 6.00 |
| CCCC(=O)c1ccc(NCc2ccc(OC)nc2OC)cc1 | human mGlu2 receptor (Homo sapiens, UniProt Q14416) | 5.00 to 6.00 |
| O=C1c2ccc(OCc3c[nH]nc3-c3ccccc3)cc2CN1CCC(F)(F)F | human mGlu2 receptor (Homo sapiens, UniProt Q14416) | > 6.00 |
| CCCC(=O)c1ccc(NCc2c[nH]nc2C(C)C)cc1 | human mGlu2 receptor (Homo sapiens, UniProt Q14416) | 5.00 to 6.00 |
| CCCC(=O)c1ccc(NCc2sc(C)nc2-c2ccccc2)cc1 | human mGlu2 receptor (Homo sapiens, UniProt Q14416) | 5.00 to 6.00 |
